The reported measurements were obtained from the supplement of paper PMC9170038.

- Test system: K4 kissing-loop RNA reporter
- assay-text: apparent KD of K4 kissing-loop reporter; higher = weaker reporter binding
- condition-parameters: Eterna round: R107; input ligand: arginine 13.2 mM
Each entry below lists one item and its recorded apparent KD of K4 kissing-loop reporter value.
Reply with the number and its unit after it.

Here is how some sequences turned out for apparent KD of K4 kissing-loop reporter.
construct-sequence: AGAGUCAGACAAAAGUCUGGCUCAGCCGAAGGAGCGUCCGUAAGGACAGGUAGGUCGCGGCUAUUUGAGUGAUGUUUGGGUUCCU [KL-SSArg-A20]
assayed-system: K4 kissing-loop RNA reporter
apparent KD of K4 kissing-loop reporter: 144 nM
//
construct-sequence: UGUCAUUGGUCUGAUACCAGAAGAAAUCUGGAGUGAUGUUCCAAGUCGACAAAAUGUCGCUUCCCUUGGCAGCAGACCGAUGACU [TheoBS 23 #SwitchBubble 13 #StaticStem]
assayed-system: K4 kissing-loop RNA reporter
apparent KD of K4 kissing-loop reporter: 331 nM
//
construct-sequence: UUAUAACCCAGUGAUGUUGGGUAGCGGCCACGAGGACCGGUACGGCCGCCACUCGAGGUUUGACCAGUGAUGUUGGACUAUUUGG [Same state Tryptophan A GF 5]
assayed-system: K4 kissing-loop RNA reporter
apparent KD of K4 kissing-loop reporter: 134 nM
//
construct-sequence: GGCCGGAAGGCGAGCGCUCCCACUCCGGAAGGAGCGCCCGUAAGGGCAGGUAGGUCGCCGGAGUGAUGUUCCGGUGGAGGGCUCG [#2 Exclusion - Arginine A Attempt #21 (Inspired by Omei)]
assayed-system: K4 kissing-loop RNA reporter;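 note: bound reporter read as fluorescence of individual clusters on recovered sequencing chips by microscopy, with normalized cluster intensities fitted with a binding model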
apparent KD of K4 kissing-loop reporter: 106 nM

Now look at this entry.
Q. Please report the recorded apparent KD of K4 kissing-loop reporter for CGCCGCAAGGCGGUCCUGCCCACUCCGGAAGGAGCGCCCGCAAGGGCAGGUAGGUCGCCGGAGUGAUGUUCCGGUGGCAGGACCG [#2 Exclusion - Arginine A Attempt #4 (Inspired by Omei)] .
A. 112 nM
